Answer each item with its documented log10(IC50).
Target sequence: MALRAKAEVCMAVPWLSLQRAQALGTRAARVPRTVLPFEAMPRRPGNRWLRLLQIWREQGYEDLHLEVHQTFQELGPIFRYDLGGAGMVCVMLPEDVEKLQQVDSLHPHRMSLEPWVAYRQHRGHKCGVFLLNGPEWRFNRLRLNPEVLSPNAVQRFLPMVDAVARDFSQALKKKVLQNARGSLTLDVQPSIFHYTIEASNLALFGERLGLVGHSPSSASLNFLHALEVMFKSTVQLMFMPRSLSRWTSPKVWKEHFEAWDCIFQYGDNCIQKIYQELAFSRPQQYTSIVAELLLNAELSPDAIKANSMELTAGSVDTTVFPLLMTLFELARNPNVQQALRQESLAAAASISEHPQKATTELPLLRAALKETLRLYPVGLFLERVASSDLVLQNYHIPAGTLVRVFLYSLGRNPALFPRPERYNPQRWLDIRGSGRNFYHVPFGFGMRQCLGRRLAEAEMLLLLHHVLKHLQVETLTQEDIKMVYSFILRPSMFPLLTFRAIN
Record value = log10 of IC50 given in nM.

# CHEM_SMILES, RECORDED_ENDPOINT, ASSAY_VALUE
records = [
    ("O=[N+]([O-])c1ccc(-c2ccncc2)c(OCCCc2ccccc2)c1", "log10(IC50)", 0.90),
]

Dear colleague, could you please provide log10(IC50) for the molecules listed below?
1. O=[N+]([O-])c1ccc(Cc2cccnc2)c(OCCc2ccccc2)c1
2. O=[N+]([O-])c1ccc(-c2ccncc2)cc1OCCc1ccccc1
3. COc1ccc(-c2ccncc2)c(OCCc2ccccc2)c1
4. Nc1ccc(-c2cccnc2)c(OCc2ccccc2)c1
5. O=[N+]([O-])c1ccc(-c2cccnc2)c(OCCCc2ccccc2)c1

1. 2.26
2. 3.08
3. 1.66
4. 2.73
5. 0.78
